Where do these numbers come from? They come from patent US20150272939A1.

Catalogue of molecules with associated Artifact Signal (percent)
- TEST DETAILS: AlphaScreen counterscreen against bio-H3K4me2 peptide in the absence of enzyme (artifact signal);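 also: counterscreen run without enzyme against bio-H3K4me2 peptide to remove false positive hits from the JARID1 demethylase AlphaScreen screen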
- SETUP CONDITIONS: effect of the compound when incubated with bio-H3K4me2 peptide (counterscreen, no enzyme)
ENDPOINT NAME: Artifact Signal (percent)

MOLECULE: S=c1[nH]cnc2nc[nH]c12 [YU033892, MERCAPTOPURINE, reference compound]
RESULT: −2.15%
//
MOLECULE: N.N.[Cl][Pt][Cl] [YU034538, CISPLATIN, reference compound]
RESULT: 8.53%
//
MOLECULE: Cc1cccc(NC(c2cccnc2)c2ccc3cccnc3c2O)n1 (stereo not shown)
RESULT: 53.31%
//
MOLECULE: Fc1cccc(-c2nn3c(-c4ccccc4Cl)nnc3s2)c1
RESULT: −3.54%
